Origin of values: PubChem BioAssay (NCI)

system: SK-MEL-28 melanoma; test: NCI tumour cell line growth inhibition, 48 h
readoutKind: TGI

Query: Quick check: TGI of NC(Cc1c[nH]c2ccccc12)P(=O)(O)O (stereo not given) ?
Response: > 100 µM

Query: And O=c1c(C(=Nc2ccccc2)c2ccccc2)c[nH]n1-c1ccccc1 ?
Response: > 100 µM

Query: And CSc1nc(=Nc2ccccc2)sn1-c1ccccc1 ?
Response: 30.2 µM

Query: And COc1ccc(CN2C(=O)C(Cl)=C(Nc3cccc(O)c3)C2=O)cc1 ?
Response: > 100 µM

Query: And NC(=O)n1ncc(Cl)c(Cl)c1=O ?
Response: > 100 µM

* * *

test system: COLO 205 colon; assay: NCI tumour cell line growth inhibition, 48 h
readoutKind: TGI

Example entries begin here.
• CC1=Nn2c(nnc2-c2ccc(Cl)cc2)NC(C)(C)C1 = > 100 µM
• COc1ccc(C(O)c2cc3c(N)c(C(=O)Nc4cccc(OC)c4)sc3nc2C)cc1 (centres undefined) = > 50 µM
• CCc1c(C)[nH]c2c1/C(=N/N=C1\CCCc3[nH]c(C)c(CC)c31)CCC2 = 41.6 µM

# context switch: different compound, same TGI
Query: Quick check: TGI of Cc1cc(Nc2ncc(F)c(N[C@H]3[C@@H](C(N)=O)[C@@H]4C=C[C@H]3C4)n2)ccc1N1CCN(C)CC1 ?
Response: < 0.0326 µM

* * *

tested on: UACC-257 melanoma; assay: NCI tumour cell line growth inhibition, 48 h
*1 amine or outer side, *2 acyl side, *3 side chain or, on linkers, in order; H or OH if unused. Where a SMILES comes first, the peptide text is derived from it. Bridges are numbered along the chain shown (N, C = ends). [ ]: non-standard residue; d: D form. The star is where a group is joined. Phe(3,5-F2) = N[C@@H](Cc1cc(F)cc(F)c1)C(=O)O; Pro(4R-Me) = C[C@H]1CN[C@H](C(=O)O)C1; aThr = C[C@H](O)[C@H](N)C(=O)O; Pip = O=C(O)[C@@H]1CCCCN1; X10 = Fc1cc(C2CC2)ccc1N*; Abu = CC[C@H](N)C(=O)O; CO = O=C([*:1])[*:2]
Quick reference for TGI among some compounds

- O=c1oc2ccc(Cl)cc2cc1C1=CSC2=NCCN12: > 100 µM
- CC[C@@H]1NC(=O)[C@@H]2CCCCN2C(=O)[C@@H]2CCCN2C(=O)[C@@H](NC(=O)[C@H](Cc2cc(F)cc(F)c2)NC(=O)Nc2ccc(C3CC3)cc2F)[C@H](C)OC(=O)[C@@H]2C[C@@H](C)CN2C1=O ({X10-CO}-[Phe(3,5-F2)][aThr]P[Pip][Abu][Pro(4R-Me)]; ester 2-C): 6.26 µM

Query: Quick check: TGI of C=CCN1C2Cc3cc(OC)c(OC)cc3C1Cc1cc(OC)c(OC)cc12 ?
Response: > 100 µM

Query: And O=C(O)c1sccc1O ?
Response: > 100 µM

Query: And COc1ccc(Cc2nc3cc([N+](=O)[O-])ccc3n2C[C@@H]2CCCN3CCCCC23)cc1 (stereo partly drawn) ?
Response: 31.5 µM

Query: And COC(=O)CCC1(NS(=O)(=O)c2ccc(C)cc2)CCC(C(C)(C)C)CC1 (stereo not drawn) ?
Response: 24.7 µM

Query: And O=C(CNc1c(Cl)cccc1Cl)Nc1ccc(-c2nc3ccccc3s2)cc1 ?
Response: 16.6 µM
